- measuredTarget: cynomolgus ARG2
- Sequence (as listed by the source): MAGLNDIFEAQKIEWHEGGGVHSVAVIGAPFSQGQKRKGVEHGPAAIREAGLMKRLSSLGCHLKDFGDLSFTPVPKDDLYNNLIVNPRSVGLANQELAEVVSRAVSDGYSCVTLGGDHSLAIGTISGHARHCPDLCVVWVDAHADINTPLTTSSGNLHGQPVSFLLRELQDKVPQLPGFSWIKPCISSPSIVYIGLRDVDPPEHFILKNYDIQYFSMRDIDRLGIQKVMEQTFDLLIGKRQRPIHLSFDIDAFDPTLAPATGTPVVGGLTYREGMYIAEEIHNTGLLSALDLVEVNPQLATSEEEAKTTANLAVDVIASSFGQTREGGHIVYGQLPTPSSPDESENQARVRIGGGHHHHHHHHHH
- protocolNotes: Bio-Layer Interferometry (OctetRED) binding kinetics, cynomolgus ARG2
- runParameters: Fab as analyte; cyno ARG2 ligand; affinity-matured antibodies
reportedMetric: kd (s⁻¹)
// note: answer is a bare numeric in s⁻¹

Here are 3 molecules together with their reported answers.
The reported kd of the molecule C0021128: anti-ARG2 antibody, VH SEQ ID NO: 162, VL SEQ ID NO: 167 (antibody, listed as Homo sapiens, V domains shown, C0021128) VH: EVQLLESGGGLVQPGGSLRLSCAASGFTFQYEVAAWVRQAPGKGLEWVSAISGPIPKGYYADSVKGRFTISRDNSKNTLYLQMNSLRAEDTAVYYCARLRADLGLYMDLWGRGTLVTVSS VL: QSVLTQPPSVSAAPGQKVTISCSGSSSNIGNHYVSWYQQLPGTAPKLLIYDNAIESSGIPDRFSGSKSGTSATLGITGLQTGDGADYYCGTWDSNLSALVFGGGTKLTVL was 0.000771

The reported kd of the molecule C0021092: anti-ARG2 antibody, VH SEQ ID NO: 92, VL SEQ ID NO: 97 (antibody, listed as Homo sapiens, V domains shown, C0021092) VH: EVQLLESGGGLVQPGGSLRLSCAASGFTFSRYAMSWVRQAPGKGLEWVSAHTHSPGSTYYADSVKGRFTISRDNSKNTLYLQMNSLRAEDTAVYYCARLRADLGLYMDLWGRGTLVTVSS VL: QSVLTQPPSVSAAPGQKVTISCSGSSSNIGNHYVSWYQQLPGTAPKLLIYNSVARPSGIPDRFSGSKSGTSATLGITGLQTGDEADYYCGTWDSSLSALVFGGGTKLTVL was 0.000726

The reported kd of the molecule C0021139: anti-ARG2 antibody, VH SEQ ID NO: 212, VL SEQ ID NO: 217 (antibody, listed as Homo sapiens, V domains shown, C0021139) VH: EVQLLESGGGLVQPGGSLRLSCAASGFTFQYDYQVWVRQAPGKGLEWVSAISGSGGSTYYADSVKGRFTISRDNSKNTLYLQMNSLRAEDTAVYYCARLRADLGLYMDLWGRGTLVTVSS VL: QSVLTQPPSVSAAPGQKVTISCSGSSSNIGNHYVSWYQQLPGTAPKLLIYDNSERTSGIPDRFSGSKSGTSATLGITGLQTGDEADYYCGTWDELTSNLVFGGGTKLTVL was 0.000724

Continuing:
The reported kd of the molecule C0021061: anti-ARG2 antibody, first generation lead, VH SEQ ID NO: 62, VL SEQ ID NO: 67 (antibody, listed as Homo sapiens, V domains shown, C0021061) VH: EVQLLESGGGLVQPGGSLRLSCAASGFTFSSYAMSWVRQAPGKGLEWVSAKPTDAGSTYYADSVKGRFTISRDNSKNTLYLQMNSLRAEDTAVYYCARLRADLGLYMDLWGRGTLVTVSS VL: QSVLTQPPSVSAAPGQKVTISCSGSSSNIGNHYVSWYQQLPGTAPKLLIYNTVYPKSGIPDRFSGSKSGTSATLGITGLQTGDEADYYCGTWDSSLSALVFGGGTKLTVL was 0.000296

The reported kd of the molecule C0021022: anti-ARG2 antibody, VH SEQ ID NO: 42, VL SEQ ID NO: 47 (antibody, listed as Homo sapiens, V domains shown, C0021022) VH: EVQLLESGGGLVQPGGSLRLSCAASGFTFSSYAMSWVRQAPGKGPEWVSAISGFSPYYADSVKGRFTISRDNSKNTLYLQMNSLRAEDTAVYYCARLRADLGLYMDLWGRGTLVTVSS VL: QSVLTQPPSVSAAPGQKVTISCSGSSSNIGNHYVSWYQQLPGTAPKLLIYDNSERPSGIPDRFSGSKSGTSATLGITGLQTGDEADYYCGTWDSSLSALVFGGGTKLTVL was 0.00117

Each recorded value in this set is attributed to patent US20220403048A1.
